Tested on: Plasmodium falciparum 3D7-A10 parasites
Assay: Stage specificity assay (8-h exposure of synchronized stages, IC50^8h)
Assay type: cell-based
Conditions: read-out: Schizonts Mean IC50 (IC50^8h); 8-h exposure 32–40 hr, 3D7-A10, survival at 60 h
Below, each of the compounds is paired with its reported pIC50 value.
In simple prose, pIC50 is minus the logarithm base ten of a concentration in moles per litre.

CC(C)(C)NCc1cc(Nc2ccnc3cc(Cl)ccc23)c2c(c1O)CCCC2 [Naphtoquine, Naphthoquine, reference compound] = 7.37
CC(C)(C)c1ccc2c(c1)CN(Cc1ccc(Cl)cc1)CO2 = 6.30

-- ask Lab request: please report pIC50 under test system Plasmodium falciparum 3D7-A10 parasites for CN(C)Cc1ccc(-c2cc3c(-c4ccc(CN(C)C)cc4)ccnc3[nH]2)cc1.O=C(O)C(F)(F)F
-- reply 5.60

---

# maps each entry to its IC50
Tested on: Plasmodium falciparum 3D7-A10 parasites
Test: Stage specificity assay (8-h exposure of synchronized stages, IC50^8h)
Assay type: cell-based
Conditions: Plasmodium falciparum, 3D7, read-out: Schizonts Mean IC50 (IC50^8h), 8-h exposure 32–40 hr, 3D7-A10, survival at 60 h

Before answering, review these 5 worked examples.
CC(C)(C)OC(=O)N1CCN(c2ccccc2NC(=O)c2cccc(C(F)(F)F)c2Oc2ccc(F)cc2)CC1 = 4190 nM
CC(C)C[C@@H](/C=C/S(C)(=O)=O)NC(=O)[C@H](CC(C)C)NC(=O)[C@H](Cc1c[nH]c2ccccc12)NC(=O)CN1CCOCC1 [WLL-vs, reference compound] = 50.1 nM
CCN(CC)CCn1c(=N)n(CC(O)c2ccc(Cl)c(Cl)c2)c2ccccc21.Cl (stereo not drawn) = 754 nM
FC(F)(F)c1cccc(Nc2nc3ccccc3nc2Nc2cccc(C(F)(F)F)c2)c1 = 203 nM
Clc1ccc2c(N3CCN(CCCN4CCN(c5ccnc6cc(Cl)ccc56)CC4)CC3)ccnc2c1 [Piperaquine, reference compound] = 67 nM

# input for lookup
-- ask Would you mind telling me what IC50 value was observed for COc1ccc(C2c3ccc4ccccc4c3Oc3ncn(CCCN(C)C)c(=N)c32)cc1 (stereo not drawn) ?
-- reply 842 nM

---

Tested on: 3D7-MR4 trophozoite parasite-infected RBCs
Test: Metabolomic profiling (hydrophilic metabolite changes, UHPLC-MS)
Assay type: cell-based, Plasmodium falciparum
Details: metabolite nicotinate
So basically, the class depends on measured Log2(fold change) nicotinate, and the ranges are A = under -0.1, B = from -0.1 up to 0.1, C = 0.1 and over

Solved cases (7 shown):
CN(C)Cc1ccc(-c2cc3c(-c4ccc(CN(C)C)cc4)ccnc3[nH]2)cc1.O=C(O)C(F)(F)F [MMV022224] = A
FC(F)(F)c1cccc(Nc2nc3ccccc3nc2Nc2cccc(C(F)(F)F)c2)c1 [MMV665794] = B
CCCCN(CCCC)CC(O)c1cc(Cl)cc2c1-c1ccc(Cl)cc1/C2=C/c1ccc(Cl)cc1 (stereo not drawn) [Lumefantrine, reference compound] = B
CCOC(=O)C1=C(C)NC2=C(C(=O)CC(c3ccc(OC)c(OC)c3)C2)C1c1ccccc1Cl (stereo not drawn) [GNF-Pf-5660, reference compound] = C
CCCOCc1cc(CN2CCN(c3cccc(Cl)c3)CC2)c(O)c2ncccc12 [MMV000787] = A
CNc1nc(NCCCN(C)C)c2sc(-c3cccc(C(F)(F)F)c3)cc2n1 [MMV668311] = C
COc1cncc(-c2cncc(N3CCN(c4ccncc4)CC3)n2)c1 [MMV085071] = C

-- ask Entry CC(C)C[C@@H](/C=C/S(C)(=O)=O)NC(=O)[C@H](CC(C)C)NC(=O)[C@H](Cc1c[nH]c2ccccc12)NC(=O)CN1CCOCC1 [WLL-vs, reference compound] belongs to which category?
-- reply B

---

System: 3D7-MR4 trophozoite parasite-infected RBCs
Assay: Metabolomic profiling (hydrophilic metabolite changes, UHPLC-MS)
Assay type: cell-based, Plasmodium falciparum
Conditions: metabolite serine
recorded_metric: Log2(fold change) serine

Would you please look over these solved cases?
CCN(CC)CCn1c(=N)n(CC(O)c2ccc(Cl)c(Cl)c2)c2ccccc21.Cl (stereo not drawn) = 0.0000
CCCOCc1cc(CN2CCN(c3cccc(Cl)c3)CC2)c(O)c2ncccc12 = -0.1539

# ---- query molecule ----
-- ask # returns recorded Log2(fold change) serine (system: 3D7-MR4 trophozoite parasite-infected RBCs) for FC(F)(F)c1ccc(Nc2cc3[nH]c(-c4cccc(C(F)(F)F)c4)nc3cn2)nc1
-- reply -0.0132

---

Tested on: 3D7-MR4 trophozoite parasite-infected RBCs
Assay: Metabolomic profiling (hydrophilic metabolite changes, UHPLC-MS)
Format: cell-based, Plasmodium falciparum
Settings: metabolite S-adenosyl-L-methioninamine
Log2(fold change) S-adenosyl-L-methioninamine values by entry
Lab note: record the figure alone, no unit after it.

-- ask # Log2(fold change) S-adenosyl-L-methioninamine lookup, item O=C(Nc1ccc(N2CCNCC2)cc1)c1ccn2ncc(-c3cccc(Cl)c3)c2n1.O=C(O)C(F)(F)F
-- reply 0.0000

-- ask I would be grateful if you could share the reported Log2(fold change) S-adenosyl-L-methioninamine for CC(C)(C)OC(=O)N1CCN(c2ccccc2NC(=O)c2cccc(C(F)(F)F)c2Oc2ccc(F)cc2)CC1 .
-- reply 0.0000

-- ask Log2(fold change) S-adenosyl-L-methioninamine for CCCOCc1cc(CN2CCN(c3cccc(Cl)c3)CC2)c(O)c2ncccc12 ?
-- reply 1.4172

-- ask For the compound Clc1ccc2c(N3CCN(CCCN4CCN(c5ccnc6cc(Cl)ccc56)CC4)CC3)ccnc2c1 [Piperaquine, reference compound] , what Log2(fold change) S-adenosyl-L-methioninamine is on record?
-- reply 0.0000

-- ask Name the recorded Log2(fold change) S-adenosyl-L-methioninamine for CNc1nc(NCCCN(C)C)c2sc(-c3cccc(C(F)(F)F)c3)cc2n1 .
-- reply 0.0000

-- ask Item under review: CCOC(=O)C1=C(C)NC2=C(C(=O)CC(c3ccc(OC)c(OC)c3)C2)C1c1ccccc1Cl (stereo not drawn) [GNF-Pf-5660, reference compound] . Reported Log2(fold change) S-adenosyl-L-methioninamine?
-- reply 0.0000

---

Examples of compounds with documented Log2(fold changes) 6-phospho-D-gluconate follow.
System: 3D7-MR4 trophozoite parasite-infected RBCs
Experiment: Metabolomic profiling (hydrophilic metabolite changes, UHPLC-MS)
Format: cell-based, Plasmodium falciparum
Conditions: metabolite 6-phospho-D-gluconate, log2 fold change
Output spec: single numeric token, no unit.

CN(C)Cc1ccc(-c2cc3c(-c4ccc(CN(C)C)cc4)ccnc3[nH]2)cc1.O=C(O)C(F)(F)F = -0.0328
COCCNCC(O)Cn1c2ccc(Cl)cc2c2cc(Cl)ccc21 (stereo not drawn) = -0.4356

-- ask Endpoint output: Log2(fold changes) 6-phospho-D-gluconate of COc1ccc(C2c3ccc4ccccc4c3Oc3ncn(CCCN(C)C)c(=N)c32)cc1 (stereo not drawn) . Value?
-- reply -0.3071

---

This listing pairs molecules with measured Log2(fold change) malate.
System: 3D7-MR4 trophozoite parasite-infected RBCs
Test: Metabolomic profiling (hydrophilic metabolite changes, UHPLC-MS)
Type: cell-based, Plasmodium falciparum
Settings: metabolite malate
A bare number is all that is needed in reply.

Cc1ccc(Oc2ncccc2C(=O)Nc2cccc3cccnc23)c(C)c1 = -0.6987
CNc1nc(NCCCN(C)C)c2sc(-c3cccc(C(F)(F)F)c3)cc2n1 = 0.0044
OC(c1cc(C(F)(F)F)nc2c(C(F)(F)F)cccc12)C1CCCCN1 (stereo not shown) [Mefloquine, reference compound] = -0.0910

Lab note: next molecule to report on.
-- ask Fill in the blank: the reported Log2(fold change) malate of CN(C(=O)c1cn2c(-c3ccc(C(F)(F)F)cc3)cnc2cn1)c1ccc(C#N)cc1 [KAI407, reference compound] is ____.
-- reply -0.3950

---

Tested on: 3D7-MR4 trophozoite parasite-infected RBCs
Assay: Metabolomic profiling (hydrophilic metabolite changes, UHPLC-MS)
Type: cell-based, Plasmodium falciparum
Details: metabolite PE
Given measured Log2(fold change) PE, output Criterion met if it is greater than or equal to -0.8 and Criterion not met if not.

Example results:
C[C@H]1Cc2c([nH]c3cc(Cl)c(F)cc23)[C@@]2(N1)C(=O)Nc1ccc(Cl)cc12 [KAE609, reference compound] = Criterion not met
O=C1C(O)=C([C@H]2CC[C@H](c3ccc(Cl)cc3)CC2)C(=O)c2ccccc21 [Atovaquone, reference compound] = Criterion met
CC(C)(C)c1ccc2c(c1)CN(Cc1ccc(Cl)cc1)CO2 [MMV000442] = Criterion not met
CN(C)c1ccc2nc3ccc(=[N+](C)C)cc-3sc2c1 [Methylene blue, reference compound] = Criterion met
CCCCN(CCCC)CC(O)c1cc(Cl)cc2c1-c1ccc(Cl)cc1/C2=C/c1ccc(Cl)cc1 (centres unmarked) [Lumefantrine, reference compound] = Criterion not met

-- ask # bool: Log2(fold change) PE of FC(F)(F)c1ccc(Nc2cc3[nH]c(-c4cccc(C(F)(F)F)c4)nc3cn2)nc1 [MMV675939] >= -0.8
-- reply Criterion met

-- ask Does Log2(fold change) PE meet or surpass -0.8 for CC(C)C[C@@H](/C=C/S(C)(=O)=O)NC(=O)[C@H](CC(C)C)NC(=O)[C@H](Cc1c[nH]c2ccccc12)NC(=O)CN1CCOCC1 [WLL-vs, reference compound] ?
-- reply Criterion met

-- ask I'd appreciate it if you could say whether CC(C)(C)NCc1cc(Nc2ccnc3cc(Cl)ccc23)c2c(c1O)CCCC2 [Naphtoquine, Naphthoquine, reference compound] has Log2(fold change) PE at least equal to -0.8.
-- reply Criterion met

-- ask Quick check: does CCN(CC)CCn1c(=N)n(CC(O)c2ccc(Cl)c(Cl)c2)c2ccccc21.Cl (centres unmarked) [MMV000248] have Log2(fold change) PE greater than or equal to -0.8?
-- reply Criterion not met

-- ask Reported Log2(fold change) PE reaches at least -0.8 for COc1cncc(-c2cncc(N3CCN(c4ccncc4)CC3)n2)c1 [MMV085071] ?
-- reply Criterion met

-- ask Does Log2(fold change) PE meet or surpass -0.8 for Cc1cc(Nc2ccc(OCc3ccccc3)cc2)nc2cc(O)ccc12 [MMV007181] ?
-- reply Criterion not met
